# Test system: MS2 coat protein
# assayProtocol: apparent KD of MS2 coat protein; designed switch direction (-1 OFF switch, 1 ON switch): -1; higher = weaker reporter binding
# conditionSet: input ligand: FMN 200 uM
# label = Criterion met if apparent KD of MS2 coat protein >= 400 nM else Criterion not met

Req: Textbook exercise: given the entry UUCAGUCUAGAGGAUAUGCUGGAUUAAUAUCUGGCAGAAGGCUGGACAUGAGGAUCACCCAUGUAAAUACUACC [Omei Ex6 A5] (Eterna round: R97, puzzle: Exclusion 6) , state whether its apparent KD of MS2 coat protein is greater than or equal to 400 nM.
Resp: Criterion not met

Req: Textbook exercise: given the entry UCUCGCAGGCAAGGAUAUCCUACAUUGUUCUGGCCCGGGCAUGCUACAUGAGGAUCACCCAUGUGGGAGAAGGUGCGCCACGGC [Design 32] (Eterna round: R96, puzzle: Exclusion NG 2) , state whether its apparent KD of MS2 coat protein is greater than or equal to 400 nM.
Resp: Criterion not met

Req: Textbook exercise: given the entry UACUGGACAGGAUAUGUUCUUGAGCACUUGAGGAUCACCCAAGUCAUCAAGAACUCAGGCACAGAAGGGUUUAUGU [salish99_ex5_r4_005] (Eterna round: R97, puzzle: Exclusion 5) , state whether its apparent KD of MS2 coat protein is greater than or equal to 400 nM.
Resp: Criterion not met

Req: Textbook exercise: given the entry UACAUGAGGAUCACCCAUGUUUUAUCAUGUGUAAUAAUAAUGUAGGAUAUGUAUUUAUUUAUUUAACAGAAGGACAAUAAUAAA [JMF's solution 3] (Eterna round: R96, puzzle: Exclusion NG 3) , state whether its apparent KD of MS2 coat protein is greater than or equal to 400 nM.
Resp: Criterion met

Req: Textbook exercise: given the entry AAUGGUAAAGUCAGGAUAUACGUAAAUCGUUCUAGGUAGAAGGGACAUGAGGAUCACCCAUGUAUGAUAGUAAA [Ex4 #32] (Eterna round: R97, puzzle: Brourd's mod of Exclusion 4) , state whether its apparent KD of MS2 coat protein is greater than or equal to 400 nM.
Resp: Criterion not met

---

What apparent KD of MS2 coat protein was measured for each of the following?
# Test system: MS2 coat protein
# assayProtocol: apparent KD of MS2 coat protein, switch ON state; designed switch direction (-1 OFF switch, 1 ON switch): -1; higher = weaker reporter binding
# conditionSet: FMN input: 0 or 200 uM; Eterna round: R93 (includes R88 designs)
One number for each entry, in nM.

Would you please look over these solved cases?
UAAAAACAUGAGGAUCACCCAUGUGAGGAUAUGUGAAAAAAAAAAAAAAAAAAAACAAGCAGAAGGCACAAAAA [JR_Exc001_Sub020] ... 67.6
GAAAAGGUAGGAUAUACGAAAAAAAAGGGUAAAAAAUAAAAACAUGAGGAUCACCCAUGUAGAAGGACCAAAAG [Mat - Exclusion 2 - Tesla mod - D40] ... 28.8
AAAUAGCAAGGAUAUACAUGAGGAUCACCCAUGUGAAAAAGGUAUGGAAUAGAAUAGAGUAGAAGGUGCAAAUA [Mod of Ex 3 Tesla 8 - Jieux - Exclusion 3] ... 24.9
AAAAAGCGAGGAUAUACAUAGCUAAGACGUGUGAGCGAAAAACAUGAGGAUCACCCAUGUAGAAGGCGCAAAAA [Exclusion2-03] ... 18.2

// for each sequence in input: emit apparent KD of MS2 coat protein
1. AAAAGACAUGAGGAUCACCCAUGUGAGGAUAUGCGAAAAAAAAAAAUAAAAAAAAAAAGUAGAAGGCACACCAA [Mat - Exclusion 1 - Eli mod - D56]
2. AAAAUACAUGAGGAUCACCCAUGUGAGGAUAUGCUAUGGAAAAUAAAAAUAAAACAUAGCAGAAGGCACAAAAA [Denovo 13]

Resp:
[177, 37]
